List of Binding affinity (RU) values.
assayed_system: acetylcholine receptor
run_description: SPR, AchR immobilised on chip, peptide 10 uM

binder | Binding affinity (RU)
RRRLLR [6mer-1-229] | 153
RKWVTR [6mer-1-257] | 124
KRRVRK [6mer-1-213] | 127
RNTDR [5mer-1122] | 14
